System: SK-MEL-2 melanoma
assay text: NCI-60 one-dose screen, 48 h (100 = growth as untreated, 0 = no growth, -100 = all killed)
applied conditions: 10 µM unless noted
Method: Growth inhibition of the SK-MEL-2 human tumor cell line is measured as a screen for anti-cancer activity. Cells are grown in 96 well plates and exposed to the test compound for 48 hours. Compounds are tested at a single concentration, which is 10^-5 M for most compounds. The reported endpoint is percent growth (GI% or GIPRCNT), where numbers from 0 - 100% represent growth inhibition, and numbers from -100% - 0 represent cell death. For example, a value of 40 represents 60% growth inhibition. […]
The panel holds about 83,000 compounds, 20% with a hit somewhere; the sample as a whole holds those more often.
Could you please classify the records by growth using these ranges: A: < 30%; B: ≥ 30% and < 70%; C: ≥ 70%

Which bin, given its growth, does "CCCCSc1nc(NCCc2c[nH]c3ccccc23)c(C#N)c(-c2ccc(OC)cc2)n1" occupy?
C

Which bin, given its growth, does "CC(=O)Nc1ccc(-n2cnc3ccc(-c4ccc(O)cc4)cc32)cc1" occupy?
B

Which bin, given its growth, does "O=C(Nc1cccc(-n2cnc3cc(-c4ccc(O)cc4)ccc32)c1)C1CC1" occupy?
B

Which bin, given its growth, does C#CCOc1cc(N(CC)CC)ccc1C(C(=O)NC(C)(C)C)N(C(=O)C1CCc2cc(F)ccc2O1)c1ccc(Br)cc1 (centres undefined) occupy?
C

Which bin, given its growth, does "CN1CCN(Cc2ccc(C(=O)Nc3cccc(C#Cc4cccc5[nH]nc(N)c45)c3)cc2C(F)(F)F)CC1" occupy?
A

Which bin, given its growth, does "Cn1cc(-c2cc3nc(-c4c[nH]c5ccc(Br)cc45)cc(N)n3n2)c2ccccc21" occupy?
A

Which bin, given its growth, does COc1ccc(N2N=C(c3ccc4c(c3)OCO4)CC2c2cccc(NC(=O)CCNS(=O)(=O)c3ccc(Cl)cc3)c2)cc1 (centres undefined) occupy?
B

Which bin, given its growth, does "O=C(CCN1C(=O)/C(=C/c2ccc(F)cc2)SC1=S)N1CCOCC1" occupy?
B

---

Test system: SF-268 CNS
assay text: NCI-60 one-dose screen, 48 h
applied conditions: 10 µM unless noted
Compounds without any hit were thinned out: in the full panel of roughly 83,000, 20% have a hit. The source made the active and inactive calls. How the source made its calls: active means growth percent below 10; inactive means the rest.
Form entry, call: pick from active, inactive

Just curious, what result did "O=C(COc1ccc(NC(=O)Nc2ccc(Cl)c(Cl)c2)cc1)N=Nc1c(O)[nH]c2ccc(Br)cc12" get here?
active

Just curious, what result did "COc1ccc2c(c1)c(-c1cc3nc(-c4cn(C)c5ncccc45)cc(N)n3n1)cn2C" get here?
inactive

Just curious, what result did "CN(C)CCCNC(=O)c1cc(NC(=O)c2cc(NC(=O)c3ccc(C#Cc4ccccc4)cc3)cn2C)cn1C" get here?
inactive

Just curious, what result did O=c1oc2ccccc2cc1-c1csc(N2N=C(c3ccccc3)CC2c2ccc(N3CCOCC3)cc2)n1 (centres undefined) get here?
inactive

Just curious, what result did "Cn1cc(-c2cc3nc(-c4cn(C)c5ncccc45)cc(N)n3n2)c2ccccc21" get here?
inactive

Just curious, what result did "CN(C)c1ccnc(NCCCSC(c2ccccc2)(c2ccccc2)c2ccccc2)c1" get here?
inactive

Just curious, what result did "Cc1ccc(-c2nnc3ccc(N/N=C/c4ccccc4)nn23)cc1" get here?
inactive

Just curious, what result did "COc1ccc(C(=O)/C=C/c2c(F)cccc2Cl)cc1S(N)(=O)=O" get here?
inactive

Just curious, what result did "Cc1cc(C)n(-c2ccc3nnc(-c4ccccc4)n3n2)n1" get here?
inactive

---

Tested on: BT-549 breast
assay text: NCI-60 one-dose screen, 48 h
applied conditions: 10 µM unless noted
The panel holds about 83,000 compounds, 20% with a hit somewhere; the sample as a whole holds those more often. Active and inactive are the calls of the source. How the source made its calls: active means growth percent below 10; inactive means the rest.
Form entry, call: pick from TRUE (active), FALSE (inactive)

Just curious, what result did COc1ccc(C2=NN(C(C)=O)C(c3ccc(OCc4ccc(Cl)cc4)c(OC)c3)C2)cc1OC (stereo not drawn) get here?
FALSE

Just curious, what result did "Brc1ccc(N/N=C/c2c[nH]c3ccc(Br)cc23)nc1" get here?
TRUE

Just curious, what result did CC1(C)CC[C@]2(C(=O)Nc3ccccc3)CC[C@]3(C)C(=CCC4[C@@]5(C)C[C@@H](O)[C@H](O)[C@@](C)(CO)C5CC[C@]43C)C2C1 (stereo partly drawn) get here?
FALSE

Just curious, what result did "Cc1ccc2c(c1)nc(-c1ccccc1)n2CC(=O)N=Nc1c(O)[nH]c2ccc(Br)cc12" get here?
TRUE

Just curious, what result did "Nc1nnc(-c2c[nH]c3ncc(Br)cc23)c(-c2c[nH]c3ccc(F)cc23)n1" get here?
FALSE

Just curious, what result did "O=C(Nc1ccccc1)N1CCN(c2cc(-c3cn(-c4ccccc4)nc3-c3cccc(O)c3)ccn2)CC1" get here?
FALSE

Just curious, what result did "CCN(CC)CCOc1ccc(Nc2ncc3cc(-c4ccc(O)c(C#N)c4)c(=O)n(C)c3n2)cc1" get here?
FALSE

Just curious, what result did COc1ccc(N2N=C(c3ccc4c(c3)OCO4)CC2c2cccc(NC(=O)CCNS(=O)(=O)c3ccc(Cl)cc3)c2)cc1 (stereo not drawn) get here?
FALSE

---

Please go through the items and note down their growth.
Test system: COLO 205 colon
assay text: NCI-60 one-dose screen, 48 h (100 = growth as untreated, 0 = no growth, -100 = all killed)
applied conditions: 10 µM unless noted
Compounds without any hit were thinned out: in the full panel of roughly 83,000, 20% have a hit.
Only the number, expressed in %, is required.

Hey, COLO 205 colon data for "CN(C)CCn1c2ccccc2c2nc3cc(C(F)(F)F)ccc3nc21" : growth came out at 14

Hey, COLO 205 colon data for COc1c(F)ccc(C(=O)Nc2ccc3nc(NC(=O)C4CCCN(S(=O)(=O)c5ccc(C(F)(F)F)cc5)C4)sc3c2)c1F (stereo not drawn) : growth came out at 84.2

Hey, COLO 205 colon data for COCOc1ccc2c(=O)c(C)c(C(=O)N[C@@H](Cc3ccccc3)C(O)C(=O)NCCc3ccc(OC)cc3)oc2c1 (stereo partly drawn) : growth came out at 139

Hey, COLO 205 colon data for COc1ccc(CCC2c3c(cc4c(c3OC)OCO4)CCN2C)cc1 (stereo not drawn) : growth came out at -73.1

Hey, COLO 205 colon data for "COc1ccc(C(=O)/C=C/c2cccc3ccccc23)cc1S(N)(=O)=O" : growth came out at -78.6

Hey, COLO 205 colon data for "O=c1[nH]c2ccc(Cl)cc2cc1CSc1nccc(-c2ccc(Cl)cc2)n1" : growth came out at 71.7

Hey, COLO 205 colon data for "COc1ccccc1C(=O)NN1C(=O)/C(=C/C2=Cc3ccccc3OC2)SC1=S" : growth came out at 119

Hey, COLO 205 colon data for "CCOC(=O)c1ccc(Nc2nc(NN)nc(-c3ccc(F)cc3)c2C#N)cc1" : growth came out at 119

Hey, COLO 205 colon data for "Cc1ccc(S(=O)(=O)c2nc(S(=O)(=O)c3ccc(C)cc3)c(N3CCC(O)CC3)s2)cc1" : growth came out at 98

Hey, COLO 205 colon data for "CNS(=O)(=O)c1ccc(Nc2ccc(C(F)(F)F)cc2)c(-c2cn(C)cn2)c1" : growth came out at 53.1

Hey, COLO 205 colon data for CN(C)CCOc1ccc(C(=O)C2[C@H](c3ccc(Cl)cc3)[C@@H](c3ccccc3)NC23C(=O)Nc2ccccc23)cc1 (stereo partly drawn) : growth came out at -63.2

Hey, COLO 205 colon data for C=C1CC[C@@H]2[C@]3(C)COC(c4cn[nH]c4-c4ccc(Br)cc4)O[C@@H]3CC[C@@]2(C)[C@@H]1C/C=C1/C(=O)OCC1O (stereo partly drawn) : growth came out at -54.6

Hey, COLO 205 colon data for C=C1CCC2C3(C)COC(c4cccc(F)c4)OC3CCC2(C)C1C/C=C1/C(=O)OCC1O (stereo not drawn) : growth came out at -51.5

Hey, COLO 205 colon data for "O=C(/C=C/c1ccc(-c2ccccc2)cc1)c1nc2ccccc2n1Cc1ccc(F)cc1" : growth came out at 48.9

Hey, COLO 205 colon data for "COc1ccc(NC(=O)Cn2c(/C=C/c3cccc([N+](=O)[O-])c3)nc3ccccc3c2=O)cc1" : growth came out at 98.8

Hey, COLO 205 colon data for "Nc1nnc(-c2c[nH]c3ncc(Br)cc23)c(-c2c[nH]c3ccc(F)cc23)n1" : growth came out at 16.2

Hey, COLO 205 colon data for "COc1ccc2c(c1)c(-c1cc3nc(-c4cn(C)c5ncccc45)cc(N)n3n1)cn2C" : growth came out at -74.1

Hey, COLO 205 colon data for "Cn1cc(-c2cc3nc(-c4cn(C)c5ncc(Br)cc45)cc(N)n3n2)c2ccccc21" : growth came out at -81.4
